protocol: physchem
reported conditions: aqueous with cosolvent or surfactant or cyclodextrin, thermodynamic from solid
Protocol: Polymer solutions containing 23% by weight of the copolymer were prepared in water, and paclitaxel was added to the solution and the mixture was stirred for approximately 20 minutes.
metric name: solubility

IN: Given the molecule CC(=O)O[C@H]1C(=O)[C@@]2(C)[C@H]([C@H](OC(=O)c3ccccc3)[C@]3(O)C[C@H](OC(=O)[C@H](O)[C@@H](NC(=O)c4ccccc4)c4ccccc4)C(C)=C1C3(C)C)[C@]1(OC(C)=O)CO[C@@H]1C[C@@H]2O [paclitaxel] , what is its reported solubility?
OUT: > 25 mg/mL

====

protocol: physchem
reported conditions: water, water solubility
metric name: solubility (µg/mL)
Give bare numbers, in µg/mL.

IN: Given the compound COC1=CC(=O)C[C@@H](C)[C@]12Oc1c(Cl)c(OC)cc(OC)c1C2=O , what is its reported solubility?
OUT: 10
